B1: Ribonuclease, P00648 (parent)
chain: MMKMEGIALKKRLSWISVCLLVLVSAAGMLFSTAAKTETSSHKAHTEAQVINTFDGVADYLQTYHKLPDNYITKSEAQALGWVASKGNLADVAPGKSIGGDIFSNREGKLPGKSGRTWREADINYTSGFRNSDRILYSSDWLIYKTTDHYQTFTKIR

- Variants of: B1
- CONDITION_SET: Bacillus amyloliquefaciens; pH 9; 25 °C; Urea; Fluorescence; MES/Tris 150 mM/150 mM/; NaCl 1 M; structure 1BNI; whole UniProt chain shown
Overview of recorded denaturant m value for various variants
QUANTITY_NAME: denaturant m value (kcal/mol/M)

[
  {
    "VARIANT_CODE": "W141Y",
    "QUANTITY_NAME": "denaturant m value",
    "DATA_VALUE": 2
  },
  {
    "VARIANT_CODE": "W141F",
    "QUANTITY_NAME": "denaturant m value",
    "DATA_VALUE": 2.01
  },
  {
    "VARIANT_CODE": "W141L",
    "QUANTITY_NAME": "denaturant m value",
    "DATA_VALUE": 1.98
  },
  {
    "VARIANT_CODE": "H65G W141L",
    "QUANTITY_NAME": "denaturant m value",
    "DATA_VALUE": 1.8
  },
  {
    "VARIANT_CODE": "H65G",
    "QUANTITY_NAME": "denaturant m value",
    "DATA_VALUE": 2.07
  }
]
